# System: DU-145 prostate
# assay comment: NCI tumour cell line growth inhibition, 384-well format; in the data active = GI50 below about 0.43 µM; inactive = the rest
Return exactly one item of active, inactive

Illustrative cases are given below, each with its answer.
1) O=[N+]([O-])c1ccc(Nc2ccccc2-c2ccccc2)c2nonc12	inactive
2) CNC(=O)c1cc(COc2nnc(Nc3ccc(Cl)cc3)c3ccoc23)ccn1	inactive

Exam item: Each compound tested received a call. Report the one for `Cc1nc2ccc(CN(C)c3ccc(C(=O)N[C@@H](CCC(=O)O)C(=O)O)s3)cc2c(=O)[nH]1` .
Marked response: active

Exam item: Hello, I am checking results. What call was entered for `CC(C)[C@](O)(c1ccc2cc(OC(F)F)c(OC(F)F)cc2c1)c1cn[nH]n1` ?
Marked response: inactive

* * *

# Tested on: SK-MEL-28 melanoma
# assay comment: NCI tumour cell line growth inhibition, 384-well format
Reported TGI values are given for each entry in this list.
Just the number in µM, nothing appended.

Recorded TGI, per entry:
1. CNC(=O)c1cc(COc2nnc(Nc3ccc(Cl)cc3)c3ccoc23)ccn1	17.6
2. Cc1ccc(C(=O)N(CCCN)[C@@H](c2nc3cc(Cl)ccc3c(=O)n2Cc2ccccc2)C(C)C)cc1	2.64

Exam item: Which TGI is reported with SK-MEL-28 melanoma for this entry: Cc1[nH]ncc1-c1cc2nc(C3CC4CCN3CC4)[nH]c(=O)c2s1 (centres undefined) ?
Marked response: 23.2

* * *

# Test system: HCC-2998 colon
# assay comment: NCI tumour cell line growth inhibition, 384-well format
measured quantity: TGI (µM)
Field format: number, assumed µM, no unit text.

Exam item: TGI of `CN1CCN(c2ccc(C(=O)Nc3n[nH]c4ccc(Cc5cc(F)cc(F)c5)cc34)c(NC3CCOCC3)c2)CC1` on HCC-2998 colon?
Marked response: 2.22

* * *

# Tested on: IGROV1 ovarian
# assay comment: NCI tumour cell line growth inhibition, 384-well format
measured quantity: GI50

Example cases with answers are listed next.
1) Cc1[nH]ncc1-c1cc2nc(C3CC4CCN3CC4)[nH]c(=O)c2s1 (centres undefined)	3760 nM
2) O=[N+]([O-])c1ccc(Nc2ccccc2-c2ccccc2)c2nonc12	16100 nM
3) Cc1ccc(C(=O)N(CCCN)[C@@H](c2nc3cc(Cl)ccc3c(=O)n2Cc2ccccc2)C(C)C)cc1	1100 nM

Moving on to the next compound.
Exam item: Enter reported GI50 observed with IGROV1 ovarian for `CN1CCN(c2ccc(C(=O)Nc3n[nH]c4ccc(Cc5cc(F)cc(F)c5)cc34)c(NC3CCOCC3)c2)CC1`
Marked response: 1010 nM

* * *

# Test system: MDA-MB-231 breast
# assay comment: NCI tumour cell line growth inhibition, 384-well format; in the data active = GI50 below about 0.43 µM; inactive = the rest
Answer with one of the outcomes 1.0 for active, 0.0 for inactive

Below are worked cases with known answers.
1. Cc1ccc(C(=O)N(CCCN)[C@@H](c2nc3cc(Cl)ccc3c(=O)n2Cc2ccccc2)C(C)C)cc1	1.0
2. CN1CCc2cc3c(cc2C1O)OCO3 (stereo not given)	0.0
3. Cc1nc2ccc(CN(C)c3ccc(C(=O)N[C@@H](CCC(=O)O)C(=O)O)s3)cc2c(=O)[nH]1	0.0
4. CNC(=O)c1cc(COc2nnc(Nc3ccc(Cl)cc3)c3ccoc23)ccn1	0.0

Exam item: Please state the recorded outcome for this compound: `CC(C)[C@](O)(c1ccc2cc(OC(F)F)c(OC(F)F)cc2c1)c1cn[nH]n1`
Marked response: 0.0

* * *

The entries below come with measured TGI values attached.
# Test system: SR leukemia
# assay comment: NCI tumour cell line growth inhibition, 384-well format
Record the value in µM, omitting the unit from your answer.

Here are 2 compounds together with their reported answers.
1) CNC(=O)c1cc(COc2nnc(Nc3ccc(Cl)cc3)c3ccoc23)ccn1	4.87
2) CC(C)[C@](O)(c1ccc2cc(OC(F)F)c(OC(F)F)cc2c1)c1cn[nH]n1	13.6

Exam item: Return reported TGI; argument: `O=[N+]([O-])c1ccc(Nc2ccccc2-c2ccccc2)c2nonc12`
Marked response: 33.3

* * *

# Test system: HCC-2998 colon
# assay comment: NCI tumour cell line growth inhibition, 384-well format
measured quantity: TGI (µM)
Output spec: scalar in µM, unitless text.

Worked examples follow.
1. O=[N+]([O-])c1ccc(Nc2ccccc2-c2ccccc2)c2nonc12	40.8
2. Cc1ccc(C(=O)N(CCCN)[C@@H](c2nc3cc(Cl)ccc3c(=O)n2Cc2ccccc2)C(C)C)cc1	0.112

Here is another molecule to look at.
Exam item: Could you share which TGI value was measured for `CC(C)[C@](O)(c1ccc2cc(OC(F)F)c(OC(F)F)cc2c1)c1cn[nH]n1` ?
Marked response: 28.9

* * *

# Test system: SR leukemia
# assay comment: NCI tumour cell line growth inhibition, 384-well format
TGI listing for selected compounds.

Field: example entries. Status: answers known.
1) Cc1nc2ccc(CN(C)c3ccc(C(=O)N[C@@H](CCC(=O)O)C(=O)O)s3)cc2c(=O)[nH]1	< 10 nM
2) CN1CCc2cc3c(cc2C1O)OCO3 (stereo not drawn)	> 100000 nM

Please look at the following compound next.
Exam item: GET /values?readout=TGI&item= `Cc1ccc(C(=O)N(CCCN)[C@@H](c2nc3cc(Cl)ccc3c(=O)n2Cc2ccccc2)C(C)C)cc1`
Marked response: < 10 nM
